Target: S. pyogenes SKKanGAS, kanamycin survival, BacTiterGlo, 6 h
Experiment: S. pyogenes SKKanGAS kanamycin growth inhibitors – SKKanGAS strain, luminescence, dose confirmation, streptokinase promoter inhibitor project, dose response (AID 1902);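 also: lower survival reflects blocked streptokinase promoter driving kanamycin resistance gene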
Active and inactive are the calls of the source.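 The calls were made as follows: active = EC50 no more than a set limit of log units above the highest dose; inactive = the rest.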
quantity-measured: EC50

CO/N=C(/C(=O)N[C@@H]1C(=O)N2C(C(=O)O)=CCS[C@H]12)c1cnc(N)s1 | < 0.06 µM
Cn1c2ccccc2c(=O)c2cc(C#Cc3ccc(N)cc3)ccc21 | 1.35 µM
Clc1ccc(C2=CSC3=Nc4cccc5cccc(c45)N23)cc1 | 7.43 µM
CCOC(=O)c1cnc(-n2nc(C)cc2C)nc1Nc1ccc(OC)cc1 | 0.185 µM
CCOc1ccc(N(CC(=O)NCc2ccc(C)cc2)S(=O)(=O)c2c(C)[nH]c(=O)[nH]c2=O)cc1 | > 15 µM (inactive)
COc1ccc(NC(=O)c2cccc(-c3ccc(O)cc3)c2)cn1 | 13 µM
CCCC1=NN2C(=N)/C(=C\c3cc(C)n(-c4cc(C)cc(C)c4)c3C)C(=O)N=C2S1 | 1.83 µM
CCC1C(=NO)C(CC)C(c2ccccc2)NC1c1ccccc1 (configuration not stated) | 3.34 µM
COc1ccc(-c2cc(-c3ccc(C)cc3)n[nH]2)c(O)c1 | 2.76 µM
Oc1ccc(CN2CCc3ccccc3C2)c2cccnc12 | 4.09 µM
O=c1c(O)c(-c2cccs2)oc2ccc(Cl)cc12 | 2.06 µM
CC(C)(C)c1ccc(O)c(N=Cc2c(O)ccc3ccccc23)c1 | 5.12 µM
COc1cc(C(=O)NNC(=S)NC(=O)c2ccccc2C)cc(OC)c1OC | 1.88 µM
O=c1c2cn[nH]c2nc(SCc2c(F)cccc2F)n1-c1ccc(Cl)cc1 | 11.1 µM
Cc1cc(C)c2nc(NNC(=O)c3ccc(S(=O)(=O)N4CCCC(C)C4)cc3)sc2c1 (configuration not stated) | 0.297 µM
CCOC(=O)c1c(NC(=O)CCS(=O)(=O)c2ccccc2)sc2c1CCN(C)C2 | > 15 µM (inactive)
Cc1cccc(NC(=O)c2nc[nH]c2C(=O)N[C@@H](CCCCNC(=O)OC(C)(C)C)C(=O)OC(C)(C)C)c1 | 2.83 µM
CO[C@H]1C=CO[C@@]2(C)Oc3c(C)c(O)c4c(O)c(c5c(c4c3C2=O)NC2(CCN(CC(C)C)CC2)N=5)=NC(=O)C(C)=CC=C[C@H](C)[C@H](O)[C@@H](C)[C@@H](O)[C@@H](C)[C@H](OC(C)=O)[C@@H]1C | < 0.06 µM
O=C(/C=C/c1ccccc1)NCCc1ccccc1 | > 15 µM (inactive)
Cc1cccc(N2CCN(C(=O)c3cc4n(n3)C(C(F)(F)F)CC(c3ccco3)N4)CC2)c1C (configuration not stated) | 4.2 µM
Cc1ccc(Sc2cc(C)nc(-c3ccccn3)n2)cc1 | 12.4 µM
Nc1c(Cl)cc(-c2csc(N3CCCC3c3nc4cc(Cl)c(Cl)cc4n3CCOCCO)n2)cc1Cl (configuration not stated) | > 15 µM (inactive)
C[C@]12CCC(O)CC1CCC1C2CC[C@]2(C)C(c3cc(C(F)(F)F)n[nH]3)CCC12 (some centres not stated) | 1.9 µM
Oc1ccccc1/C=N/Nc1nc2ccccc2o1 | 2.42 µM
Cc1ccc(-n2c(SCC(=O)Nc3ccc4c5c(cccc35)CC4)nc(O)cc2=O)cc1 | 11.9 µM
Cc1ccc(CNC(=S)NC2CCC(C(C)(C)C)CC2)cc1 (configuration not stated) | 3.4 µM
CC(=O)Nc1ccc(S(=O)(=O)N2CCN=C2SCc2ccc(C)cc2)cc1 | > 15 µM (inactive)
O=C(Cn1nc(CNc2ccc(Cl)cc2)[n+]2c1CCCCC2)c1ccc(Br)cc1 | 10.8 µM
CC(Oc1ccc(F)cc1)C(=O)Nc1ccccc1N1CCCCC1 (configuration not stated) | 5.01 µM
CC(C)(C)CC(=O)N1CCC(c2nc3c(nnn3Cc3c(F)cccc3Cl)c(=O)[nH]2)CC1 | 2.8 µM
COc1ccccc1OCCCn1c(C)c(C#N)c2ccccc21 | 7.08 µM
CSc1cccc(NC(=O)OC2CCCCCCCCCCC2)c1 | 4.1 µM
